inhibition at 0.1 µM overview
- test_system: FAAH (Rattus norvegicus, UniProt P97612)
- Construct: Preparation of Rat Brain Membranes Preparations (FAAH Enzyme Solution); from tissue; host or cells: rat cerebrum (brain membrane preparation)
- Sequence (P97612 whole entry): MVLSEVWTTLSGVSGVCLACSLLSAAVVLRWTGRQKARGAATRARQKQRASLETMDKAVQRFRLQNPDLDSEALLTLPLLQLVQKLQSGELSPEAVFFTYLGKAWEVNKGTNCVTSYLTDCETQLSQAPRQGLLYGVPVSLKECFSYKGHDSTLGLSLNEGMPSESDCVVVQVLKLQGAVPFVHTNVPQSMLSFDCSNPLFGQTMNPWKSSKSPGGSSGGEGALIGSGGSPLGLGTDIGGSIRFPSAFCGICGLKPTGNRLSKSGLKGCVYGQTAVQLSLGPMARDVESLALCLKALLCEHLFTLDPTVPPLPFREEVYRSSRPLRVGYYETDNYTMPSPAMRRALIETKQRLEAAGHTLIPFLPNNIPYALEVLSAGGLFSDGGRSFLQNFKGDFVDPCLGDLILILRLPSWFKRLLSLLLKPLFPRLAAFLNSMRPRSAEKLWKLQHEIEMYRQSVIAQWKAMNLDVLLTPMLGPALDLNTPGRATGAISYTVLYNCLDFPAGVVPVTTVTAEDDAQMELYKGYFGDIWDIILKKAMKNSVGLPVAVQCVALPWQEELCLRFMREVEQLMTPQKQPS
- procedure_details: Determination of FAAH inhibitory activity in rat (rat brain membrane preparations, [3H]-anandamide hydrolysis)
- Type: biochemical
- measurement_conditions: rat brain membrane preparations; 100 nM test substance; read-out: FAAH Inhibition, Inhibition Rate at 100 nM
Quick reminder: number only, in %, skip the unit.

Please review the following examples before continuing.
- compound: "Cn1c(=O)n(C(=O)N2CCC2)c2cnc(Cc3ccccc3F)nc21 [compound 374]"
  recorded_result: 85
- compound: "COCCc1ncc2c(n1)n(C)c(=O)n2C(=O)N1CC(c2cccc(F)c2)C1 [compound 391]"
  recorded_result: 105
- compound: "COCc1ncc2c(n1)n(C)c(=O)n2C(=O)N1CC(c2ccc(C)cc2)C1 [compound 452]"
  recorded_result: 74
- compound: "Cn1c(=O)n(C(=O)N2CCCC2)c2cnc(-c3ccncc3)nc21 [Example 213]"
  recorded_result: 100
- compound: "COCc1ncc2c(n1)n(C)c(=O)n2C(=O)N1CC[C@H](Oc2ccc(C)cc2)C1 [Example 484]"
  recorded_result: 86
- compound: "COCc1ncc2c(n1)n(C)c(=O)n2C(=O)N1CC[C@@H](Oc2ccccc2F)C1 [Example 474]"
  recorded_result: 71

Exercise: Let me know recorded inhibition at 0.1 µM for CN(C)C(=O)n1c(=O)n(C)c2cnc(CCc3cccc(OCC(F)(F)F)c3)nc21 [Example 552] , thanks.
Key: 98

Exercise: State, in one line, measured inhibition at 0.1 µM of COc1cccc(-c2ncc3c(n2)n(C)c(=O)n3C(=O)N(C)Cc2ccc(OC(F)(F)F)cc2)c1 [Example 83]
Key: 93

Exercise: Assign inhibition at 0.1 µM to the following record: CN(C)c1ccc(-c2ncc3c(n2)n(C)c(=O)n3C(=O)N2CCCC2)cc1 [Example 182]
Key: 100

Exercise: Look up and report measured inhibition at 0.1 µM for this entry: CCCc1ccc(CCc2ncc3c(n2)n(C(=O)N2CCC2)c(=O)n3C)cc1 [compound 562]
Key: 101

Exercise: Tell me its inhibition at 0.1 µM given CCCc1ccc(-c2ncc3c(n2)n(C)c(=O)n3C(=O)N2CCCC2)cc1 [compound 180] as the entry.
Key: 99

Exercise: Give inhibition at 0.1 µM for the following compound: Cn1c(=O)n(C(=O)N2CCC2)c2nc(COc3ccc(Cl)cc3)ncc21 [Example 428]
Key: 123

Exercise: Output inhibition at 0.1 µM of Cc1ccc(CCc2ncc3c(n2)n(C(=O)N(C)C)c(=O)n3C)cc1 [Example 494]
Key: 98

Exercise: # return recorded inhibition at 0.1 µM for entry CCn1c(=O)n(C(=O)N2CCCC2)c2cnc(-c3ccccc3)nc21 [Example 303]
Key: 101

Exercise: Report inhibition at 0.1 µM, nothing else, for this compound: CCN(C)C(=O)n1c(=O)n(C)c2nc(C3CCCCC3)ncc21 [Example 162]
Key: 72

Exercise: Name the recorded inhibition at 0.1 µM of the compound listed here: Cn1c(=O)n(C(=O)N2CCC2)c2cnc(Cc3ccc(Cl)cc3)nc21 [compound 378]
Key: 80

Exercise: Write down inhibition at 0.1 µM measured for item Cn1c(=O)n(C(=O)N2CCCC2)c2cnc(CCc3cccc(F)c3)nc21 [compound 13]
Key: 91

Exercise: State its inhibition at 0.1 µM for this compound: Cn1c(=O)n(C(=O)N2CCC2)c2cnc(COc3ccccc3F)nc21 [compound 408]
Key: 69

Exercise: Please look at this compound and report its inhibition at 0.1 µM: CN(C)C(=O)n1c(=O)n(C)c2cnc(CCc3ccccc3OC(F)(F)F)nc21 [compound 549]
Key: 77

Exercise: Let me know recorded inhibition at 0.1 µM for CCc1cccc(CCc2ncc3c(n2)n(C(=O)N(C)C)c(=O)n3C)c1 [compound 516] , thanks.
Key: 100

Exercise: For the compound COCc1ncc2c(n1)n(C)c(=O)n2C(=O)N1CC[C@@H](Oc2ccccc2)C1 [Example 488] , give its reported inhibition at 0.1 µM.
Key: 74
